Consider the following compounds and their measured IC50 readings.
Test system: TDP-43 aggregation
test description: TDP-43 aggregation assay in SY5Y TDP-43WT cells (high content imaging)
Type: cell-based
stated conditions: Homo sapiens, tetracycline induction 24 hrs, 1 hour compound pre-treatment, sodium arsenite 23 hrs, 8-point dose curve, percentage of cells with TDP-43 aggregates, read-out: IC50, Inhibition of TDP-43 Aggregation
quantity: IC50

# compound, target or system, quantity, readout value
records = [
    ("Cc1cc(-c2ccc(CN)cc2)sc1C(=O)N1CC[C@H](N)C1", "TDP-43 aggregation", "IC50", "< 500 nM"),
    ("Cc1cc(-c2ccc(N3CCC(C)CC3)cc2)sc1C(=O)N1CC[C@H](N)C1", "TDP-43 aggregation", "IC50", "2000 to 6000 nM"),
    ("Cc1cc(-c2ccc(C3CCN(C4CCNC4)CC3)cc2)sc1C(=O)N1CC[C@H](N)C1 (stereo partly drawn)", "TDP-43 aggregation", "IC50", "500 to 1000 nM"),
    ("COC(C)CN1CCC(c2ccc(-c3cc(Cl)c(C(=O)N4CC[C@H](N)C4)s3)cc2F)CC1 (stereo partly drawn)", "TDP-43 aggregation", "IC50", "< 500 nM"),
    ("Cc1cc(-c2ccc(COC3CCCCC3)cc2)sc1C(=O)N1CC[C@H](N)C1", "TDP-43 aggregation", "IC50", "2000 to 6000 nM"),
    ("Cc1cc(-c2ccc3c(c2)CCN(C)C3)sc1C(=O)N1CC[C@H](N)C1", "TDP-43 aggregation", "IC50", "< 500 nM"),
    ("COC(C)CN1CCC(c2ccc(-c3cc(C)c(C(=O)N4CC[C@H](N)C4)s3)cc2F)CC1 (stereo partly drawn)", "TDP-43 aggregation", "IC50", "< 500 nM"),
    ("COc1cc(C2CCN(C3CCOCC3)CC2)ccc1-c1cc(C)c(C(=O)N2CC[C@H](N)C2)s1", "TDP-43 aggregation", "IC50", "2000 to 6000 nM"),
    ("Cc1cc(-c2ccc3c(c2)CCNC3)sc1C(=O)N1CC[C@H](N)C1", "TDP-43 aggregation", "IC50", "< 500 nM"),
    ("Cc1cc(-c2ccc(C3(N(C)C)CCCC3)cc2)sc1C(=O)N1CC[C@H](N)C1", "TDP-43 aggregation", "IC50", "500 to 1000 nM"),
    ("N[C@H]1CCN(C(=O)c2sc(-c3ccc(C4CCN(C5CCOCC5)CC4)cc3)cc2Br)C1", "TDP-43 aggregation", "IC50", "< 500 nM"),
    ("Cc1cc(-c2ccc(C3COC3)cc2)sc1C(=O)N1CC[C@H](N)C1", "TDP-43 aggregation", "IC50", "< 500 nM"),
    ("Cc1cc(-c2ccc(Cl)c(Cl)c2)sc1C(=O)N1CC[C@H](N)C1", "TDP-43 aggregation", "IC50", "2000 to 6000 nM"),
    ("Cc1cc(-c2ccc(N3CCOCC3)cc2)sc1C(=O)N1CC[C@H](N)C1", "TDP-43 aggregation", "IC50", "500 to 1000 nM"),
    ("Cc1cc(-c2ccc3c(c2)OCCC3)sc1C(=O)N1CC[C@H](N)C1", "TDP-43 aggregation", "IC50", "500 to 1000 nM"),
    ("CCc1cc(-c2ccc(C3CCN(C4CCOCC4)CC3)c(F)c2)sc1C(=O)N1CC[C@H](N)C1", "TDP-43 aggregation", "IC50", "< 500 nM"),
    ("Cc1cc(-c2ccc(C3CCN(C4CCC4)CC3)c(F)c2)sc1C(=O)N1CC[C@H](N)C1", "TDP-43 aggregation", "IC50", "< 500 nM"),
    ("Cc1cc(-c2ccc3c(c2)NCCC3)sc1C(=O)N1CC[C@H](N)C1", "TDP-43 aggregation", "IC50", "1000 to 2000 nM"),
    ("Cc1cc(-c2ccc(C3CCN(C4CCOCC4)CC3)cc2)sc1C(=O)N1CC[C@H](N)C1", "TDP-43 aggregation", "IC50", "< 500 nM"),
    ("Cc1cc(-c2ccc(C3CCN(C4CCCCC4)CC3)cc2)sc1C(=O)N1CC[C@H](N)C1", "TDP-43 aggregation", "IC50", "< 500 nM"),
    ("Cc1cc(-c2ccc(C(C)N(C)C)cc2)sc1C(=O)N1CC[C@H](N)C1 (stereo partly drawn)", "TDP-43 aggregation", "IC50", "< 500 nM"),
    ("Cc1cc(-c2ccc3c(c2)CCCC3)sc1C(=O)N1CC[C@H](N)C1", "TDP-43 aggregation", "IC50", "6000 to 10000 nM"),
    ("COc1cc(-c2ccc(C3CCN(C4CCOCC4)CC3)c(Cl)c2)sc1C(=O)N1CC[C@H](N)C1", "TDP-43 aggregation", "IC50", "1000 to 2000 nM"),
    ("CCc1ccc(-c2sc(C(=O)N3CC[C@H](N)C3)c(C)c2C)cc1", "TDP-43 aggregation", "IC50", "6000 to 10000 nM"),
    ("CCCc1cc(-c2ccc(C3CCN(C4CCOCC4)CC3)cc2)sc1C(=O)N1CC[C@H](N)C1", "TDP-43 aggregation", "IC50", "1000 to 2000 nM"),
    ("Cc1cc(-c2ccc(C3CCN(C4CNC4)CC3)cc2)sc1C(=O)N1CC[C@H](N)C1", "TDP-43 aggregation", "IC50", "1000 to 2000 nM"),
    ("CCc1cc(-c2cc(C)c(C(=O)N3CC[C@H](N)C3)s2)ccc1C1CCOCC1", "TDP-43 aggregation", "IC50", "6000 to 10000 nM"),
    ("Cc1cc(-c2ccc(C(C)(C)N(C)C)cc2)sc1C(=O)N1CC[C@H](N)C1", "TDP-43 aggregation", "IC50", "< 500 nM"),
    ("N[C@H]1CCN(C(=O)c2sc(-c3ccc(C4CCN(C5CCCCC5)CC4)c(F)c3)cc2Cl)C1", "TDP-43 aggregation", "IC50", "< 500 nM"),
    ("CCN1CCN(c2ccc(-c3cc(C)c(C(=O)N4CC[C@H](N)C4)s3)cc2)CC1", "TDP-43 aggregation", "IC50", "< 500 nM"),
    ("Cc1cc(-c2ccc(COc3ccccc3)cc2)sc1C(=O)N1CC[C@H](N)C1", "TDP-43 aggregation", "IC50", "6000 to 10000 nM"),
    ("COCCN1CCC(c2ccc(-c3cc(C)c(C(=O)N4CC[C@H](N)C4)s3)cc2F)CC1", "TDP-43 aggregation", "IC50", "< 500 nM"),
    ("Cc1cc(-c2ccc3c(c2)CNCC3)sc1C(=O)N1CC[C@H](N)C1", "TDP-43 aggregation", "IC50", "< 500 nM"),
]
